Could you please report measured melting point for the items listed next?

q: Any idea what its melting point is? The compound is COc1ccc(C(C)C)c(NC(=O)CN2CCN(CCCSc3nc4ccccc4o3)CC2)c1C(C)C
a: 105 to 107 °C

q: Any idea what its melting point is? The compound is CC(C)c1cc([N+](=O)[O-])c(O)c(C(C)C)c1NC(=O)CN1CCN(CCSc2nc3ccccc3o2)CC1
a: 139 to 141 °C

q: Any idea what its melting point is? The compound is COC(=O)c1cccc2oc(SCCN3CCN(CC(=O)Nc4c(C(C)C)cccc4C(C)C)CC3)nc12
a: 173 to 175 °C

q: Any idea what its melting point is? The compound is CSc1nc(C)ccc1NC(=O)CN1CCN(CCSc2nc3ccccc3o2)CC1.Cl.Cl
a: 200 to 203 °C

q: Any idea what its melting point is? The compound is CC(C)c1ccc(O)c(C(C)C)c1NC(=O)CN1CCN(CCSc2nc3ccccc3o2)CC1
a: 96 to 98 °C

q: Any idea what its melting point is? The compound is CSc1ccc(C(C)C)c(NC(=O)CN2CCN(CCCSc3nc4ccccc4o3)CC2)c1C(C)C
a: 126 to 127 °C

====

Could you please report measured melting point for the items listed next?

q: Any idea what its melting point is? The compound is CC(C)c1ccc(OS(C)(=O)=O)c(C(C)C)c1NC(=O)CN1CCN(CCSc2nc3ccccc3o2)CC1
a: 164 to 166 °C (dec.)

q: Any idea what its melting point is? The compound is CC(C)c1cc(C(C)C)c(NC(=O)CN2CCN(CCSc3nc4ccccc4[nH]3)CC2)c(C(C)C)c1
a: 217 to 218 °C

q: Any idea what its melting point is? The compound is CCSc1cc(C)nc(SCC)c1NC(=O)CN1CCN(CCSc2nc3ccc(COC)c(COC)c3o2)CC1
a: 118 to 120 °C

q: Any idea what its melting point is? The compound is CC(C)c1cc(O)cc(C(C)C)c1NC(=O)CN1CCN(CCSc2nc3ccccc3o2)CC1
a: 162 to 164 °C

q: Any idea what its melting point is? The compound is COC(=O)c1cccc2nc(SCCCN3CCCN(CC(=O)Nc4c(C(C)C)cccc4C(C)C)CC3)oc12
a: 83 to 85 °C

q: Any idea what its melting point is? The compound is CCCCCCCN(CCN1CCN(CCSc2nc3ccccc3o2)CC1)C(=O)Nc1c(SCC)cc(C)nc1SCC.Cl.Cl
a: 124 to 127 °C

q: Any idea what its melting point is? The compound is CC(C)c1cccc(C(C)C)c1NC(=O)CN1CCN(CCCSc2nc3ncccc3o2)CC1
a: 125 to 127 °C

q: Any idea what its melting point is? The compound is CC(C)c1cc(CO)cc(C(C)C)c1NC(=O)CN1CCN(CCSc2nc3cccc(C(F)(F)F)c3o2)CC1
a: 146 to 148 °C

q: Any idea what its melting point is? The compound is CC(C)c1cccc(C(C)C)c1NC(=O)CN1CCN(CCSc2nc3ncccc3o2)CC1
a: 153 to 154 °C

q: Any idea what its melting point is? The compound is CC(C)c1cccc(C(C)C)c1NC(=O)CN1CCN(CCSc2nc3cccc(C(C)(C)C)c3o2)CC1
a: 138 to 140 °C

q: Any idea what its melting point is? The compound is COc1cc(C(C)C)c(NC(=O)CN2CCN(CCSc3nc4cccc([N+](=O)[O-])c4o3)CC2)c(C(C)C)c1
a: 165 to 166 °C

q: Any idea what its melting point is? The compound is CCOP(=O)(OCC)Oc1cc(C(C)C)c(NC(=O)CN2CCN(CCSc3nc4ccccc4o3)CC2)c(C(C)C)c1
a: 108 to 109 °C

q: Any idea what its melting point is? The compound is CC(C)c1ccc([N+](=O)[O-])c(C(C)C)c1NC(=O)CN1CCN(CCSc2nc3ccccc3o2)CC1
a: 143 to 145 °C

q: Any idea what its melting point is? The compound is COc1cc2oc(SCCN3CCN(CC(=O)Nc4c(C(C)C)cccc4C(C)C)CC3)nc2c(OC)c1OC
a: 126 to 129 °C (dec.)

q: Any idea what its melting point is? The compound is CCCCCCCN(CCN1CCN(CCSc2nc3ncccc3o2)CC1)C(=O)Nc1c(C(C)C)cc(O)cc1C(C)C
a: 100 to 102 °C
